# experimental.target: Human recombinant mini-CAPN9 (Homo sapiens)
# Sequence (O14815 42-337 limits assumed): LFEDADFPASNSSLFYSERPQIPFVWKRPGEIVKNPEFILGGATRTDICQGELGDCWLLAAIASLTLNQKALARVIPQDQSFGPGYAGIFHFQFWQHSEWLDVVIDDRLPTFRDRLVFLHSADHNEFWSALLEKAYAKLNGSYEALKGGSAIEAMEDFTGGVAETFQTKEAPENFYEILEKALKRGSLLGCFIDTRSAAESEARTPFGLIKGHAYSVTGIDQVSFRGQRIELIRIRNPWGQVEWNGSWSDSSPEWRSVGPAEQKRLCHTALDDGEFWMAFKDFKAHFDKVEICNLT
# assay.overview: Biochemical assay for calpain 9 inhibition (FRET peptide substrate, FLIPR)
# run.conditions: IC50 by 4 parameter logistic fitting; 10 min preincubation; ambient temperature
# Experimental: Human recombinant mini-CAPN9 was expressed in E. coli and purified as described in Davis, T. L., et al. (2007) J Mol Biol 366(1): 216-229. All enzyme reactions are run at ambient temperature (˜25° C.) in black 384 well assay plates. […] Slopes (reaction rates) are calculated within the 0-2 min interval using the ScreenWorks software (Molecular Devices Inc). […]
Where a SMILES comes first, the peptide text is derived from it. The star is where a group is joined. Cbz = O=C(OCc1ccccc1)*; Boc = CC(C)(C)OC(=O)*
Reported pIC50 values are given for each entry in this list.
Just the number, please; pIC50 means minus log10 of the concentration in mol/L.

// below: answered molecules
| molecule | recorded.value |
| --- | --- |
| CCCC[C@@H](C=O)NC(=O)[C@H](CC(C)C)NC(=O)OCc1ccccc1 [Calpeptin] | 5.55 |
| CC(C)C[C@@H](C=O)NC(=O)[C@@H](NS(=O)(=O)c1ccc(F)cc1)C(C)C [Calpain Inhibitor IV SJA-6017] | 5.65 |

Note to self: pIC50 recorded for CC(C)[C@H](NC(=O)OCc1ccccc1)C(=O)N[C@H](C=O)Cc1ccccc1 [MDL-28170] (Cbz-Val-Phe-aldehyde) was 5.79

Note to self: pIC50 recorded for CCC(C)[C@H](NS(=O)(=O)c1cccc2ccccc12)C(=O)N[C@H](C=O)Cc1c[nH]c2ccccc12 (stereo partly drawn) [NapSul-Ile-Trp-CHO] was 5.20

Note to self: pIC50 recorded for CC(C)C[C@@H](C=O)NC(=O)[C@H](CC(C)C)NC(=O)OCc1ccccc1 [Z-Leu-Leu-CHO] was 5.63

Note to self: pIC50 recorded for CC(=O)N[C@@H](CC(C)C)C(=O)N[C@@H](CC(C)C)C(=O)N[C@H](C=O)CCCNC(=N)N [Leupeptin Hemisulfate] was 5.03

Note to self: pIC50 recorded for CC(C)CCNC(=O)[C@H](CC(C)C)NC(=O)[C@H]1O[C@@H]1C(=O)O [E-64-C] was 4.45

Note to self: pIC50 recorded for CC(C)[C@H](NC(=O)CNC(=O)OC(C)(C)C)C(=O)N[C@H](C=O)C(C)C [Boc-Gly-Val-Val-CHO] (Boc-Gly-Val-Val-aldehyde) was 5.18

Note to self: pIC50 recorded for CSCC[C@@H](C=O)NC(=O)[C@H](CC(C)C)NC(=O)[C@H](CC(C)C)NC(C)=O [Calpain Inhibitor II (ALLM)] (Ac-Leu-Leu-Met-aldehyde) was 5.48

Note to self: pIC50 recorded for CC(C)C[C@H](NC(=O)[C@H]1O[C@@H]1C(=O)O)C(=O)NCCCCNC(=N)N [E-64] was 4.94

Note to self: pIC50 recorded for O=C1Nc2ccc([N+](=O)[O-])cc2C1=O [5-Nitroisatin] was 4.37

Note to self: pIC50 recorded for CC(C)C[C@@H](C=O)NC(=O)[C@H](CC(C)C)NC(=O)[C@H](CC(C)C)NC(=O)OCc1ccccc1 [MG-132] (Cbz-Leu-Leu-Leu-aldehyde) was 5.01
